Values compiled from BigSolDB 2.1.

Settings: in cyclohexane, 293.2 K
parameter: solubility (mole fraction)
Numbers only.

// query solubility (mole fraction) value for entry O=c1c(-c2ccc(O)cc2)coc2cc(O[C@@H]3O[C@H](CO)[C@@H](O)[C@H](O)[C@H]3O)ccc12
2.95e-07

###

Conditions: in acetonitrile, 283.2 K
parameter: solubility (mole fraction)
Give bare numbers.

// query solubility (mole fraction) value for entry O=c1c(-c2ccc(O)cc2)coc2cc(O[C@@H]3O[C@H](CO)[C@@H](O)[C@H](O)[C@H]3O)ccc12
5.77e-06

###

Conditions: in THF, 323.2 K
parameter: solubility (mole fraction)
Numbers only.

// query solubility (mole fraction) value for entry O=c1c(-c2ccc(O)cc2)coc2cc(O[C@@H]3O[C@H](CO)[C@@H](O)[C@H](O)[C@H]3O)ccc12
0.0417
